Tested on: Mycobacterium tuberculosis
Assay: Cornell - Phenotypic assay to identify agents that inhibit growth of Mycobacterium tuberculosis
Assay type: functional
Set-up: scale not given: direction of the effect not stated beside the values
Conditions: 10 mM as filed; unlikely as a test dose
Among all 53,000 compounds or so, about 900 (1.7%) showed an effect of 50% or more. What follows is part of a selection rich in strong results, with near analogues and random picks from the rest.
measured.endpoint: Percent Effect

1. COc1c(Br)c(C(=O)NC2CC2)nn1C ... 20.51%
2. Cc1nc(C)c(C(=O)N2CCc3cc(F)ccc3C2C)o1 (stereo not drawn) ... -6.74%
3. OCCn1nccc1C1CCN(CCOc2ccccc2Cl)CC1 ... -31.74%

###

System: Mycobacterium tuberculosis
Assay: Cornell - Phenotypic assay to identify agents that inhibit growth of Mycobacterium tuberculosis
Format: functional
Parameters: scale not given: direction of the effect not stated beside the values
Details: 10 mM as filed; unlikely as a test dose
In all, about 53,000 compounds went through this assay and about 900 (1.7%) showed an effect of 50% or more. The full list was thinned out, with strong results kept by preference.
measured.endpoint: Percent Effect (%)

1) Cc1ccc(C2(CN3CCN(Cc4cncn4C)CC3)CC2)cc1.Cl ... -21.08
2) Cn1cccc1CN(C(=O)Cc1cccs1)C1CC1 ... 91.3
3) Cn1cc(CN2CCc3nc4ccccc4c(=O)n3CC2)cn1 ... 52.34
4) Cn1cc(CN2CCc3nc4sccc4c(=O)n3CC2)cn1 ... -10.08
5) O=C(O)CC(CC(=O)N(Cc1ccsc1)C1CC1)c1cccs1 (configuration not stated) ... 15.88
6) CN(C(=O)Cc1cccs1)C1CCN(c2ccccn2)CC1 ... -44.78
7) Cc1cc2c(=O)n3c(nc2s1)CCN(Cc1cnn(C)c1C)CC3.Cl ... -41.11

###

Test system: Mycobacterium tuberculosis
Experiment: Cornell - Phenotypic assay to identify agents that inhibit growth of Mycobacterium tuberculosis
Format: functional
Parameters: scale not given: direction of the effect not stated beside the values
Details: 10 mM as filed; unlikely as a test dose
The campaign covered roughly 53,000 compounds. About 900 (1.7%) showed an effect of 50% or more. What follows is part of a selection rich in strong results, with near analogues and random picks from the rest.
This listing pairs compounds with measured Percent Effect.
measured.endpoint: Percent Effect

1) O=S(=O)(NCCNc1cc(-n2cccc2)ncn1)c1cccs1 ... 51.47%
2) CCc1ccc(CN2CCN(c3ccc(Cl)nn3)CC2)nc1 ... 44.3%
3) CC(OCC1CC1)C(=O)N1CCCN(Cc2nccn2C(C)C)CC1 (stereo not given) ... 14.16%
4) O=S(=O)(Cc1ccccc1)NCCNc1ccc(-n2cccc2)nn1 ... 12.63%
5) Cl.Clc1cccc(N[C@H]2CCCN[C@H]2Cc2ccccc2)c1 ... 107%
6) CN1CCN(C(=O)CCn2ncc3ccccc32)CC(C(N)=O)C1 (stereo not given) ... 40.84%
7) c1ccc(C(NCc2nnc(-c3ccco3)o2)C2CCC2)cc1 (stereo not given) ... 14.05%
8) Cc1nsc(NCCNS(=O)(=O)c2ccccc2)n1 ... 22.52%
9) CC(=O)N1CCCN(C(=O)c2cnn(-c3ccccc3Cl)c2)CC1 ... -28.49%
10) CCc1ccc(CN2CCN(c3ncc(Cl)cn3)CC2)nc1 ... 55.1%
11) COC(=O)Nc1cccc(C(=O)N(C)Cc2cccc(O)c2)c1 ... 16.47%
12) Cc1ccc(S(=O)(=O)NCCNc2cc(-n3cccc3)ncn2)c(C)c1 ... 53.05%
13) Cc1nn(C2CCS(=O)(=O)C2)c(O)c1CCc1ccccc1 (stereo not given) ... 6.158%
14) O=C(O)C(F)(F)F.c1ccc(CN2CCC3(CC2)CC(Nc2nccs2)CO3)nc1 (stereo not given) ... 10.27%
15) Cc1ccc(C)c(S(=O)(=O)NCCNc2ccc(-n3cccc3)nn2)c1 ... 29.41%

###

Tested on: Mycobacterium tuberculosis
Experiment: Cornell - Phenotypic assay to identify agents that inhibit growth of Mycobacterium tuberculosis
Assay type: functional
Set-up: scale not given: direction of the effect not stated beside the values
Conditions: 10 mM as filed; unlikely as a test dose
The campaign covered roughly 53,000 compounds. About 900 (1.7%) showed an effect of 50% or more. This is one part of a sample in which strong results are shown more often than they occur.
measured.endpoint: Percent Effect (%)

1) Cc1nc(Nc2cnccn2)cc(C2CCN(CCO)C2)n1.O=CO (centres undefined) ... -24.26
2) O=C(NCCn1ccnc1)N1CCN(c2nccs2)CC1 ... -3.95
3) Cc1cccnc1CN1CCN(c2noc(-c3ccccc3)n2)CC1 ... 16.84
4) N#Cc1c(Cl)nsc1NCc1ccc(N2CCCC(C(N)=O)C2)cc1 (centres undefined) ... 80.86
5) CN(C)c1cccc(CNC(=O)Nc2ccc3[nH]nnc3c2)n1 ... 45.79
6) Cc1nc2c(Nc3ccc(C#N)cc3)nc(N)nc2n1C ... 2.918
7) Cc1nc2c(Nc3cccc(C#N)c3)nc(N)nc2n1C ... 106.8
8) CCN(C)c1ncnc2c1CCN(S(=O)(=O)c1ccccc1)CC2.O=C(O)C(F)(F)F ... 2.965
9) Cc1nc2ccc(C(=O)N3C[C@@H](O)[C@H](N4CCCC4)C3)cc2[nH]1 ... 1.956
10) CC(=O)c1ccc(Nc2nc(N)nc3c2nc(C)n3C)cc1 ... 11.87
11) COc1c(C)cc(C(C(=O)O)N(C)Cc2ccn[nH]2)cc1C (centres undefined) ... 14.99
12) O=C(CCSc1ccc2c(c1)OCCO2)NCC1CCS(=O)(=O)C1 (centres undefined) ... -7.695
13) CC(C)c1noc(CCNC(=O)N2CCN(c3cccs3)CC2)n1 ... 4.976
14) Cc1ccc(-c2cc(N)c(=O)n(CC(=O)NCC3CC3)n2)s1 ... 90.74
15) Cc1cc(NCc2ccco2)nc2[nH]nc(N)c12 ... 73.02
16) O=C(NCc1ccccc1)[C@H]1C[C@@H]2CN(C(=O)NC3CCCC3)C[C@H]1O2 ... -33.72
17) O=C(Cc1cccc(O)c1)N1CCCC(O)(CN2CCCC2)CC1 (centres undefined) ... -1.621
18) NS(=O)(=O)c1cccnc1NCc1ccco1 ... 9.166
19) Cc1cc(-c2cc(N)c(=O)n(CC(=O)NCC3CCCCC3)n2)c(C)o1 ... -31.85
20) CC(=O)N1CCCC(c2nc(N(C)C)ncc2-c2ccccc2)C1 (centres undefined) ... 12.04
21) Cc1ccc(-c2cc(N)c(=O)n(CC(=O)NCC3CCCCC3)n2)s1 ... 31.53
22) O=C(NC1CCCN(Cc2c(F)cccc2F)C1)c1cc[nH]n1 (centres undefined) ... -25.78
23) Cc1cccnc1CN(C)C(C(=O)O)c1ccc(-c2ccn[nH]2)cc1 (centres undefined) ... 83.57
24) Cc1cccnc1CN(C)C(C(=O)O)c1ccc(-n2cccn2)cc1 (centres undefined) ... 103.2
25) CCC1=N[C@@]2(CC[C@@H]3CN(CC4CC4)C[C@@H]32)C(=O)N1CC.O=C(O)C(F)(F)F ... 7.399
26) CCOCCC1(CNC(=O)c2ccsc2)CCC1 ... 23.41
27) Cc1c(C(=O)NC(C)C(C)C)nnn1-c1cccc2c1CCN(C)C2 (centres undefined) ... 4.546
28) O=C(CSC1CCc2ccccc2NC1=O)NCCc1ccc(O)cc1 (centres undefined) ... -13.35
29) O=C1C(Nc2nccn3cnnc23)CCN1c1cccc(Cl)c1 (centres undefined) ... -12
30) COCCC(=O)N(CCC#N)c1ccc2c(c1)OCCO2 ... 0.8387
31) O=C(NCCn1ccnc1)N1CCN(Cc2cccs2)CC1 ... -4.677
32) CC(NC(=O)N1CCN(c2cccs2)CC1)c1ccc(C#N)cc1 (centres undefined) ... 66.35
33) COCC(=O)N1CCCC(c2nc(N(C)C)ncc2-c2ccccc2)C1 (centres undefined) ... 21.17
34) CN1CCCN(CC(CC(=O)Nc2ccc(Cl)cc2)C(=O)O)CC1 (centres undefined) ... 27.51

###

This listing pairs molecules with measured Percent Effect.
System: Mycobacterium tuberculosis
Experiment: Cornell - Phenotypic assay to identify agents that inhibit growth of Mycobacterium tuberculosis
Type: functional
Design: scale not given: direction of the effect not stated beside the values
Settings: 10 mM as filed; unlikely as a test dose
The campaign covered roughly 53,000 compounds. About 900 (1.7%) showed an effect of 50% or more. This is one part of a sample in which strong results are shown more often than they occur.
measured.endpoint: Percent Effect (%)

1. Cc1c(CNCc2nn(-c3ccccc3)c3c2CCC3)cc(C#N)n1C ... 0.6388
2. CC(C)COCCC(=O)Nc1ccc2oc(=O)n(CCN(C)C)c2c1 ... -58.21
3. CCN1CCN(Cc2c(C3CCCC3)[nH]c3ncccc23)CC1 ... 74.68
4. CC(C)OCCC(=O)NS(=O)(=O)N1CCOc2ccccc21 ... 29.29
5. c1cnc2[nH]c(C3CCCC3)c(CN3CCOCC3)c2c1 ... 24.1
